# assayTarget: T1, cynomolgus monkey ANGPTL4 N-terminal region (amino acid residues 1-130 of SEQ ID NO:490) with a C-terminal … (cynomolgus monkey (Macaca fascicularis), UniProt Q9BY76 26-130 (human entry))
# T1 construct: also called MfANGPTL4(1-130)-His
# T1 chain: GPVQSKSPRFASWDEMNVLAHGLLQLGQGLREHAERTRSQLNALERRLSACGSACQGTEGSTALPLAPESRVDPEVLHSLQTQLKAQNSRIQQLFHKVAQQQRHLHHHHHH
# experimentalProtocol: SPR (Biacore), 25° C., pH 7.2, antigen amino-coupled 1,028 RU
The following binders are shown together with reported koff values.
Your answer should be a plain number; it is taken to be in s⁻¹.

The following binders have reported results that may help.
{"binder": "H1H268P (antibody, V domains shown, also called entire H1H268 mAb; Full mAb) VH: QVQLQESGAGLLKPSETLSLTCTVYGGSFSIHHWTWIRHPPGKGLEWIGEINHRGSTNYNPSLKSRVTISIDTSKNQFSLKLSAVTAADTAVYYCARGLRFLDWLSSYFDYWGQGTLVTVSS VL: DIQMTQSPSSLSASVGDRVTITCRASQGISDYLAWYQQKPGKVPNLLIYAASALQSGVPSRFSGSGSGTDFTLTISSLQPEDVATYYCQNYNTAPLTFGGGTKVEIK", "koff (s⁻¹)": "4.76e-05"}
{"binder": "H1H268P Fab fragment (Fab, V domains shown, Fab made by papain digestion of H1H268P (IgG1); also called H1H268 Fab) VH: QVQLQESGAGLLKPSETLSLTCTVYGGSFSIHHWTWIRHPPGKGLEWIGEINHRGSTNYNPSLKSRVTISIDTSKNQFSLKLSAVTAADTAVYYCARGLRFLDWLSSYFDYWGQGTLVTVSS VL: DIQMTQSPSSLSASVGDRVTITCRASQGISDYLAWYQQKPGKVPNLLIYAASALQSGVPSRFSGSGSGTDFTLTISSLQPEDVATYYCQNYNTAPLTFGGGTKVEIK", "koff (s⁻¹)": 0.00171}
{"binder": "H1H284P Fab fragment (Fab, V domains shown, Fab made by papain digestion of H1H284P (IgG1); also called H1H284 Fab) VH: QVQLVESGGGVVQPGRSLRLSCAASGFTFSSYGMHWVRQAPGKGLEWMAVISFDGGNKNNADSVKGRFTISRDNSKNTLYLQMNSLRAEDTAVYYCAKEGDRSGHPYFYYYGLDVWGQGTTVTVS VL: DIQLTQSPSFLSASVGDRVTITCWASQGISSYLAWYQQKPGKAPKLLIYAASTLQSGVPSRFSGSGSETEFTLTISSLQPEDFATYYCQQLHSYPLTFGGGTKVEIK", "koff (s⁻¹)": 0.00313}

Could you now consider this next binder?
Summary for this binder, H1H284P (antibody, V domains shown, also called entire H1H284 mAb; Full mAb) VH: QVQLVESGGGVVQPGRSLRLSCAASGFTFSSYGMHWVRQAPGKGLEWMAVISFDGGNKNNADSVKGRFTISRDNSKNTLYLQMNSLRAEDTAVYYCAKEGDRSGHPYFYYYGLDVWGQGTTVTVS VL: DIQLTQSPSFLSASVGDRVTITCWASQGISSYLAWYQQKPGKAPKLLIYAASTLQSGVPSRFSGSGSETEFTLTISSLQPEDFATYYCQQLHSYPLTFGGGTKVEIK : koff is 5.83e-05
